target: Recombinant human KIF18A (1-467 His-tagged) (Homo sapiens); construct: Recombinant human KIF18A (1-467 His-tagged) protein; His; experiment: KIF18A Enzyme Assay: microtubule-stimulated ATPase activity (ADP-Glo); conditions: 30 nM KIF18A, 30 μg/mL pig microtubules, ATP 75 μM (Km), ADP-Glo luminescence
Structures can show the parent of a compound that is named as a salt.
Just a reminder that ties go to NOT MET: only IC50 strictly below 0.05 µM counts as MET.

1. O=C(Nc1cccc(OCC(O)C(F)(F)F)n1)c1ccc(NS(=O)(=O)CCO)cc1N1CCC2(CC1)CC2 (centres unmarked) [Example 16-8] :: MET
2. Cc1cc(NC(=O)c2ccc(NS(=O)(=O)C3(CO)CC3)cc2N2CCC3(CC2)CC3)nc(N2CCC(F)(F)CC2)c1 [Example 10] :: NOT MET
3. CC1(S(=O)(=O)Nc2ccc(C(=O)Nc3cccc(N4CC(F)(F)C4)n3)c(N3CCC4(CC3)CC4)c2)CC1 [Example 3-18] :: MET
4. C[C@@H]1CN(c2cccc(NC(=O)c3ccc(NS(=O)(=O)[C@@H](C)CO)cc3N3CCC4(CC3)CC4)n2)CCO1 (single isomer, unassigned) [Example 9-16] :: MET
5. O=C(Nc1cccc(OCCC(F)(F)F)n1)c1ccc(S(=O)(=O)C2CNC2)cc1N1CCC2(CC1)CC2 [Example 31, trifluoroacetate] :: NOT MET
6. CC(C)(C)NS(=O)(=O)c1ccc(C(=O)Nc2cccc(NC3(CO)COC3)n2)c(N2CCC3(CC2)CC3)c1 [Example 3-4] :: NOT MET
7. C[C@@H]1CN(c2cccc(NC(=O)c3ccc(S(=O)(=O)C4(C)COC4)cc3N3CCC4(CC3)CC4)n2)CCO1 [Example 2-3] :: NOT MET

* * *

target: Recombinant human KIF18A (1-467 His-tagged) (Homo sapiens); construct: Recombinant human KIF18A (1-467 His-tagged) protein; His; assay: KIF18A Enzyme Assay: microtubule-stimulated ATPase activity (ADP-Glo); details: 30 nM KIF18A, 30 μg/mL pig microtubules, ATP 75 μM (Km), ADP-Glo luminescence
pIC50: −log10 of the molar value.
Parameter: pIC50. Scope: all listed entries.
Measurement name: pIC50

1. CC(O)COc1cccc(NC(=O)c2ccc(NS(=O)(=O)CCO)cc2N2CCC3(CC2)CC3)n1 (stereo not drawn) :: 6.94
2. Cc1cc(NC(=O)c2ccc(NS(=O)(=O)C3(C)CC3)cc2N2CCC3(CC2)CC3)nc(C(C)(C)O)c1 :: 6.79
3. C[C@@H]1CN(c2cccc(NC(=O)c3ccc(NS(=O)(=O)C(C)(C)C)cc3N3CCC4(CC3)CC4)n2)CCO1 :: 7.17
4. CC(C)(C)NS(=O)(=O)c1ccc(C(=O)Nc2cccc(N3CCC[C@H](O)C3)n2)c(N2CCC3(CC2)CC3)c1 :: 7.02
5. Cc1cc(NC(=O)c2ccc(S(=O)(=O)CCO)cc2N2CCC3(CC2)CC3)nc(N2CCO[C@H](C)C2)c1 :: 6.99
6. C[C@@H]1CN(c2cccc(NC(=O)c3ccc(NS(=O)(=O)C4CCC4)cc3N3CCC4(CC3)CC4)n2)CCO1 :: 7.21

* * *

biological target: Recombinant human KIF18A (1-467 His-tagged) (Homo sapiens, UniProt Q8NI77); construct: Recombinant human KIF18A (1-467 His-tagged) protein; His; assay: KIF18A Enzyme Assay: microtubule-stimulated ATPase activity (ADP-Glo); conditions: 30 nM KIF18A, 30 μg/mL pig microtubules, ATP 75 μM (Km), ADP-Glo luminescence
Sequence (Q8NI77 1-467): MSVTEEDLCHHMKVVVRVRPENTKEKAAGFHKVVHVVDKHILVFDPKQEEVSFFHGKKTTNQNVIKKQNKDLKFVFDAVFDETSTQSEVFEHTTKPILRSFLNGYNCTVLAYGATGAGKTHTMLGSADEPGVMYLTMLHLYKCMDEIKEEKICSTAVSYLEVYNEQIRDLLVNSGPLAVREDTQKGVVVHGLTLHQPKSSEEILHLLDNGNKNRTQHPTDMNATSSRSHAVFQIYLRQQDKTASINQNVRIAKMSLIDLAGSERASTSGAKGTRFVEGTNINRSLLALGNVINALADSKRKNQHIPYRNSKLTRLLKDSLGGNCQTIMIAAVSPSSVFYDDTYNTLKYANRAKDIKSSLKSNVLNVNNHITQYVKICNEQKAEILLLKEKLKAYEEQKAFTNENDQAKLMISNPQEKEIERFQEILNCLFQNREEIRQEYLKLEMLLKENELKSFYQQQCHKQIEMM
Sequence (P02550 whole entry partner): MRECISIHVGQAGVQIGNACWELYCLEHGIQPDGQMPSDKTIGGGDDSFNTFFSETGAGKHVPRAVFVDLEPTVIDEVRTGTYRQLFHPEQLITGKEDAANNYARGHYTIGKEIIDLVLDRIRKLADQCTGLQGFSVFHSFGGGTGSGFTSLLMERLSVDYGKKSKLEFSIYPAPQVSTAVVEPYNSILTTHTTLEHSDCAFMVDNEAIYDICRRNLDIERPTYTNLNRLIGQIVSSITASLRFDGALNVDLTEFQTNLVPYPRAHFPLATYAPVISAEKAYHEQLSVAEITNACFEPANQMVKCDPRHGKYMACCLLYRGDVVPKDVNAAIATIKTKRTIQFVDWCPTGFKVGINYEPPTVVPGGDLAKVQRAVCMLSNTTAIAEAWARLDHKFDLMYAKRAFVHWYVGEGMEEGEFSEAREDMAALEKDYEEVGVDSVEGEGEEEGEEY
Sequence (P02554 whole entry partner): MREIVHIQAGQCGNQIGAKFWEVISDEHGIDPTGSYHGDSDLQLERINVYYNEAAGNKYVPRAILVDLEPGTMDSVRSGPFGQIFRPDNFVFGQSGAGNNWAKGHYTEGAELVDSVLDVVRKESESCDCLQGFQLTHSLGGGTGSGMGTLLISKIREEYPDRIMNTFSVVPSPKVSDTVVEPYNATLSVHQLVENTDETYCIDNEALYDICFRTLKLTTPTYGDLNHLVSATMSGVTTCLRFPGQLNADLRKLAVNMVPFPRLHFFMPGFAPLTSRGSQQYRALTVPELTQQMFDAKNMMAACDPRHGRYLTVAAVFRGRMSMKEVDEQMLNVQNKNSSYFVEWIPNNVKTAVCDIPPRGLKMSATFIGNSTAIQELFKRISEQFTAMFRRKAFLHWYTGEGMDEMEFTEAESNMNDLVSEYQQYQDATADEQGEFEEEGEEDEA
Under this convention, Y denotes IC50 strictly below 40 nM and N denotes IC50 at or above 40 nM.

1. CC1(S(=O)(=O)Nc2ccc(C(=O)Nc3cccc(OCC4CC4)n3)c(N3CCC4(CC3)CC4)c2)CC1 :: Y
2. Cc1cc(NC(=O)c2ccc(NS(C)(=O)=O)cc2N2CCC3(CC2)CC3)nc(N2CC(F)(F)C2)c1 :: Y
3. Cc1cc(NC(=O)c2ccc(NS(=O)(=O)[C@H](C)CO)cc2N2CCC3(CC2)CC3)nc(N2CCO[C@H](C)C2)c1 (single isomer, unassigned) :: Y
4. C[C@@H]1CN(c2cccc(NC(=O)c3ccc(S(=O)(=O)C(C)(C)C)cc3N3CCC4(CC3)CC4)n2)CCO1 :: N
5. Cc1cc(NC(=O)c2ccc(S(=N)(=O)C3CC3)cc2N2CCC3(CC2)CC3)nc(N2CCC(F)(F)CC2)c1 (stereo in doubt) :: N
6. C[C@@H]1CN(c2cccc(NC(=O)c3ccc(S(=O)(=O)NC(C)(C)CO)cc3N3CCC4(CC3)CC4)n2)CCO1 :: N
